TESTED SYSTEM: PDE4B1 (Homo sapiens)
Construct: made in house; host or cells: SF21 insect cells (baculovirus; virus prepared in SF9 cells)
Sequence (Q07343 whole entry): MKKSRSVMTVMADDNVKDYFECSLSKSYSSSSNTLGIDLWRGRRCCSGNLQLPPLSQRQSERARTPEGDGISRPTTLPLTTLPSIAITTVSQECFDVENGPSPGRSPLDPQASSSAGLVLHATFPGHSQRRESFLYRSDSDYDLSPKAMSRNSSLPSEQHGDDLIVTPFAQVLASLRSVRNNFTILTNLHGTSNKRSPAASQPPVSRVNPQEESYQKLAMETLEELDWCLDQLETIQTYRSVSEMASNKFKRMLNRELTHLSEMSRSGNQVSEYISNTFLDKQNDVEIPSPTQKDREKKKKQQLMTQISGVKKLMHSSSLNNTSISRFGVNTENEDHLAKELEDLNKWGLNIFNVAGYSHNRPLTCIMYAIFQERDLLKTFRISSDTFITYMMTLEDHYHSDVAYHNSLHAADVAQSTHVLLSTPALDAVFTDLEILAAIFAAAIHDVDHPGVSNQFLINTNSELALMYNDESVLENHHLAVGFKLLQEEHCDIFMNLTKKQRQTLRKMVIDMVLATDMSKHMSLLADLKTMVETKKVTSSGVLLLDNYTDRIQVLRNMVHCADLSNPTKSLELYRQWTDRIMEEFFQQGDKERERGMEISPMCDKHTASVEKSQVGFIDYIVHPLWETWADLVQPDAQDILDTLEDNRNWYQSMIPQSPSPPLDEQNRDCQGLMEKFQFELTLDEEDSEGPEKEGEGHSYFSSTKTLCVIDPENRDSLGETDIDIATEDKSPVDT
ASSAY DETAILS: Inhibition of PDE4B1 activity (SPA, [3H]cAMP)
Assay type: biochemical
TEST CONDITIONS: recombinant PDE4B1, 0.5 μM cAMP; binned: below 8 / between 8 and 9; read-out: PDE4B1 inhibitory values measured as −logIC50 (converted)
Listing of recorded IC50 by entry.
METRIC NAME: IC50

INSERT INTO assay_data (molecule, metric_name, result) VALUES
  ('CCOc1cc2c(cc1OC)C(c1ccc(C(=O)N3CCC(n4c(=O)c5sc(-c6cc(F)ccc6OC)cc5n(Cc5ccc(OC)c(F)c5)c4=O)CC3)cc1)=N[C@@H]1CCSC[C@H]21', 'IC50', '1 to 10 nM'),
  ('CCOc1cc2c(cc1OC)C(c1ccc(C(=O)N3CCC(n4c(=O)c5sc(-c6ccc(F)cc6C)cc5n(Cc5ccc(OC)c(F)c5)c4=O)CC3)cc1)=N[C@@H]1CCSC[C@H]21', 'IC50', '> 10 nM'),
  ('CCOc1cc2c(cc1OC)C(c1ccc(C(=O)N3CCC(n4c(=O)c5sc(-c6ccc(F)cc6OC)cc5n(Cc5ccc(OC)c(F)c5F)c4=O)CC3)cc1)=N[C@@H]1CCSC[C@H]21', 'IC50', '1 to 10 nM'),
  ('CCOc1cc2c(cc1OC)C(c1ccc(C(=O)N3CCC(n4c(=O)c5sc(-c6ccccc6)cc5n(Cc5cc(F)c(OC)c(F)c5)c4=O)CC3)cc1)=N[C@@H]1CCSC[C@H]21', 'IC50', '1 to 10 nM'),
  ('CCOc1cc2c(cc1OC)C(c1ccc(C(=O)N3CCC(n4c(=O)c5sc(-c6ccc(F)cc6OC)cc5n(Cc5ccc(OC)c(F)c5)c4=O)CC3)cc1)=N[C@@H]1CCSC[C@H]21', 'IC50', '1 to 10 nM');
